IC50 overview
- systemTested: MMP-1 (Homo sapiens, UniProt P03956)
- Sequence (P03956 100-469, species assumed): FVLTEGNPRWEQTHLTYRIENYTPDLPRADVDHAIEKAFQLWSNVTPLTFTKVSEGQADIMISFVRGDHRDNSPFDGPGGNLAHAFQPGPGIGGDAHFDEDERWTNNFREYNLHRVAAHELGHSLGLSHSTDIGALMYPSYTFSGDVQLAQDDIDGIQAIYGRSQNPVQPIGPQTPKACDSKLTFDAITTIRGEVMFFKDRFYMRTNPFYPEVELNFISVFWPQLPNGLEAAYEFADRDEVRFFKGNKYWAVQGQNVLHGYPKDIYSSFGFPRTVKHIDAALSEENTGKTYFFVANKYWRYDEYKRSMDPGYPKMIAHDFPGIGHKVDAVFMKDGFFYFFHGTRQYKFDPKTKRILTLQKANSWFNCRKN
- assaySummary: MMP-1 inhibitory action (Type I collagen Activity Measurement kit, FITC-labeled collagen type I)
- Type: biochemical
- assayContext: Experimental Example 2; read-out: IC50 MMP1

* O=C(O)C1(NS(=O)(=O)c2ccc(-c3cc(C(F)(F)F)on3)s2)CC1(CN1CCOCC1)c1ccccc1 (stereo not drawn) [Example 2-322] | ≥ 1000 nM

Qu. Using known records, supply IC50 for Cc1nc2cc(-c3ccc(S(=O)(=O)N[C@@]4(C(=O)O)C(C)[C@@H]4c4ccccc4)s3)ccc2s1 (stereo partly drawn) [Example 2-469]
Ans. ≥ 10000 nM

Qu. Using known records, supply IC50 for NC(=O)OCCC1(c2ccccc2)CC1(NS(=O)(=O)c1ccc(-c2ccc(Cl)cc2)s1)C(=O)O (stereo not drawn) [Example 2-295]
Ans. ≥ 1000 nM

Qu. Using known records, supply IC50 for CC1[C@H](c2ccccc2)[C@]1(NS(=O)(=O)c1ccc(-c2ccc(C(F)(F)F)cc2)s1)C(=O)O (stereo partly drawn) [Example 2-590]
Ans. ≥ 1000 nM

* * *

IC50 overview
- systemTested: Recombinant Human MMP-13 (Homo sapiens, UniProt P45452)
- Construct: purchased R&D systems 511-MM
- assaySummary: MMP-13 inhibitory activity (MMP-13 specific fluorescent substrate with quencher)
- Format: biochemical
- assayContext: Experimental Example 3; read-out: IC50 MMP13

Qu. Using known records, supply IC50 for CC(C)(C)OC(=O)NCCCC1(c2ccccc2)CC1(NS(=O)(=O)c1ccc(-c2ccc(Cl)cc2)s1)C(=O)O (stereo not drawn)
Ans. < 100 nM

* * *

- systemTested: aggrecanase-1 (Homo sapiens, UniProt O75173)
- Sequence (O75173 213-837, species assumed): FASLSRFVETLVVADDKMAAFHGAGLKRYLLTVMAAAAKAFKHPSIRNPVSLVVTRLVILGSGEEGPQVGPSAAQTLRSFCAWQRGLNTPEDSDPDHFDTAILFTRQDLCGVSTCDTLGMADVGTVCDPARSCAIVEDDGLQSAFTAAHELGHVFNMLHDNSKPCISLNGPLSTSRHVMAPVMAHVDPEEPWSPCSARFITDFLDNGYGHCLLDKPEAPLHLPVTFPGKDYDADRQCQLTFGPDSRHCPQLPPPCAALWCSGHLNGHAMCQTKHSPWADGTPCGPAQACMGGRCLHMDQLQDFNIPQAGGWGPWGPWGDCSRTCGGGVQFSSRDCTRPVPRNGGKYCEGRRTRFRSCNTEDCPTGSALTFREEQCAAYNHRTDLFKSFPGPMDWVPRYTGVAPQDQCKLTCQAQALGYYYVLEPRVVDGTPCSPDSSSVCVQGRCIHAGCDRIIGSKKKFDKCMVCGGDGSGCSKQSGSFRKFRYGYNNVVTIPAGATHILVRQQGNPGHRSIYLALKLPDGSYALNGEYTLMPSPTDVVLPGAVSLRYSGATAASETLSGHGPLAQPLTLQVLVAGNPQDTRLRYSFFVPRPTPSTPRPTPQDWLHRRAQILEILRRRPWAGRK
- assaySummary: Aggrecanase-1 inhibitory action (Particle Assay, GAG release from aggrecan-containing polyacrylamide particles)
- Assay type: biochemical
- assayContext: Experimental Example 1; read-out: IC50 AG1
attributeMeasured: IC50

- Cc1cnc(N2CCN(S(=O)(=O)N[C@@]3(C(=O)O)C(C)[C@@H]3c3ccccc3)CC2)s1 (stereo partly drawn) [Example 2-484]: ≥ 1000 nM
- CCOC(=O)CSCC1(c2ccccc2)CC1(NS(=O)(=O)c1ccc(-c2ccc(Cl)cc2)s1)C(=O)O (stereo not drawn) [Example 2-352]: < 100 nM
- C[C@]1(c2ccc(Cl)cc2)C[C@@]1(NS(=O)(=O)c1ccc(-c2cc(C(F)(F)F)on2)s1)C(=O)O [Example 2-620]: < 100 nM
- CC1(c2cccc(S(C)(=O)=O)c2)CC1(NS(=O)(=O)c1ccc(-c2cc(C(F)(F)F)on2)s1)C(=O)O (stereo not drawn) [Example 2-614]: < 100 nM
- CC1[C@H](c2ccccc2)[C@]1(NS(=O)(=O)c1ccc(-c2ccc3nonc3c2)s1)C(=O)O (stereo partly drawn) [Example 2-517]: < 100 nM
- CC1[C@H](c2ccccc2)[C@]1(NS(=O)(=O)c1ccc(-n2cc(I)cn2)s1)C(=O)O (stereo partly drawn) [Example 2-543]: < 100 nM
- Cc1cc(C2CC2(NS(=O)(=O)c2ccc(-c3cc(C(F)(F)F)on3)s2)C(=O)O)no1 (stereo not drawn) [Example 2-314]: ≥ 1000 nM
- C[C@]1(c2ccccc2)C[C@@]1(NS(=O)(=O)c1ccc(-c2cccnc2)s1)C(=O)O [Example 2-527]: ≥ 1000 nM

Qu. Using known records, supply IC50 for CC1[C@H](c2ccccc2)[C@]1(NS(=O)(=O)c1ccc(-c2ccc3nsnc3c2)s1)C(=O)O (stereo partly drawn) [Example 2-497]
Ans. < 100 nM

Qu. Using known records, supply IC50 for C[C@]1(c2ccccc2)C[C@@]1(NS(=O)(=O)c1ccc(-c2ccc3c(c2)OCO3)s1)C(=O)O [Example 2-449]
Ans. < 100 nM

Qu. Using known records, supply IC50 for NC(=O)OCCc1cccc(C2CC2(NS(=O)(=O)c2ccc(-c3cc(C(F)(F)F)on3)s2)C(=O)O)c1 (stereo not drawn) [Example 2-270]
Ans. < 100 nM

Qu. Using known records, supply IC50 for O=C(O)C1(NS(=O)(=O)c2ccc(-c3ccc(Cl)cc3)s2)C2CCc3ccccc3C21 (stereo not drawn) [Example 2-350]
Ans. < 1000 nM

Qu. Using known records, supply IC50 for CN(CCO)C(=O)OCC1(c2ccccc2)CC1(NS(=O)(=O)c1ccc(-c2cc(C(F)(F)F)on2)s1)C(=O)O (stereo not drawn) [Example 2-332]
Ans. < 1000 nM

Qu. Using known records, supply IC50 for CCNC(=O)N1CCN(S(=O)(=O)N[C@@]2(C(=O)O)C[C@@H]2c2ccccc2)CC1 [Example 2-512]
Ans. ≥ 1000 nM

Qu. Using known records, supply IC50 for O=C(O)[C@]1(NS(=O)(=O)c2ccc(-n3cc(C(F)(F)F)cn3)nc2)C[C@@H]1c1ccccc1 [Example 2-558]
Ans. ≥ 1000 nM

* * *

- systemTested: Recombinant Human MMP-13 (Homo sapiens, UniProt P45452)
- Construct: purchased R&D systems 511-MM
- assaySummary: MMP-13 inhibitory activity (MMP-13 specific fluorescent substrate with quencher)
- Type: biochemical
- assayContext: Experimental Example 3; read-out: IC50 MMP13
- Description: Inhibitory activity of tested compounds on MMP-13 was measured using MMP-13 specific fluorescent substrate with quencher. The enzyme and substrate were diluted with Tris-HCl buffer, and test compounds were diluted with dimethyl sulfoxide (DMSO). Test compounds and the enzyme (Recombinant Human MMP-13: R&D systems, 511-MM) were added into 96-well plate. The reaction was initiated by adding synthetic substrate (7-MCA-Pro-CHA-Gly-NVal-His-Ala-DPA: enzyme systems products, Met-06) into the plate. […]
pIC50: −log10 of the molar value.
attributeMeasured: pIC50

* CC1[C@H](c2ccccc2)[C@]1(NS(=O)(=O)N1CCC(Oc2ccc(Cl)cc2)C1)C(=O)O (some centres unmarked) | > 6.00

Qu. Using known records, supply pIC50 for "Cn1nncc1-c1ccc(S(=O)(=O)N[C@@]2(C(=O)O)C[C@]2(C)c2ccccc2)s1"
Ans. ≤ 5.00

Qu. Using known records, supply pIC50 for CC(O)c1cnn(-c2ccc(S(=O)(=O)N[C@@]3(C(=O)O)C(C)[C@@H]3c3ccccc3)s2)c1 (some centres unmarked)
Ans. > 7.00

Qu. Using known records, supply pIC50 for O=C(NCC1(c2ccccc2)CC1(NS(=O)(=O)c1ccc(-c2ccc(Cl)cc2)s1)C(=O)O)C1CCCCC1 (centres unmarked)
Ans. > 6.00

Qu. Using known records, supply pIC50 for O=C(O)C1(NS(=O)(=O)c2ccc(-c3cc(C(F)(F)F)on3)s2)CC1c1cccc(NS(=O)(=O)N2CCOCC2)c1 (centres unmarked)
Ans. > 7.00

Qu. Using known records, supply pIC50 for "C[C@]1(c2ccccc2)C[C@@]1(NS(=O)(=O)c1ccc(-c2ccc(CO)cc2)s1)C(=O)O"
Ans. > 7.00

Qu. Using known records, supply pIC50 for O=C(O)C1(NS(=O)(=O)c2ccc(-c3cc(C(F)(F)F)on3)s2)CC1c1cccc(CCO)c1 (centres unmarked)
Ans. > 7.00

Qu. Using known records, supply pIC50 for O=C(NCC1(c2ccccc2)CC1(NS(=O)(=O)c1ccc(-c2ccc(Cl)cc2)s1)C(=O)O)N1CCOCC1 (centres unmarked)
Ans. > 6.00

Qu. Using known records, supply pIC50 for "C[C@]1(c2ccccc2)C[C@@]1(NS(=O)(=O)c1csc2ccc(-c3ccccc3)cc12)C(=O)O"
Ans. ≤ 6.00

Qu. Using known records, supply pIC50 for O=C(O)C1(NS(=O)(=O)c2ccc(-c3cc(C(F)(F)F)on3)s2)C2CCC(O)c3ccccc3C21 (centres unmarked) [Example 2-437]
Ans. > 7.00

Qu. Using known records, supply pIC50 for CC1C(c2ccccc2)C1(NS(=O)(=O)c1ccc(-c2cccc(O)c2)s1)C(=O)O (centres unmarked)
Ans. > 7.00

Qu. Using known records, supply pIC50 for "CC(C)OC(=O)N1CCN(S(=O)(=O)N[C@@]2(C(=O)O)C[C@@H]2c2ccccc2)CC1"
Ans. ≤ 6.00

* * *

IC50 overview
- systemTested: MMP-1 (Homo sapiens)
- assaySummary: MMP-1 inhibitory action (Type I collagen Activity Measurement kit, FITC-labeled collagen type I)
- Type: biochemical
- assayContext: MMP-1 inhibitory action, FITC-labeled collagen type I, 37° C. for 3 hr; read-out: IC50 MMP1 (Experimental Example 2)

* O=C(O)C1(NS(=O)(=O)c2ccc(-c3ccc(Cl)cc3)cc2)CC1c1ccc(Oc2ccccc2)cc1 (stereo not drawn) | ≥ 1 µM
* CCC(=O)c1ccc(S(=O)(=O)NC2(C(=O)O)CC2c2ccccc2)s1 (stereo not drawn) | ≥ 10 µM

From here, focus on the item given below.
Qu. Using known records, supply IC50 for "O=C(O)[C@]1(NS(=O)(=O)c2ccc(-c3noc(C(F)(F)F)n3)s2)C[C@@H]1c1ccccc1"
Ans. ≥ 10 µM

Data provenance: patent US20080261994A1
